Test protocol: Iron clearance efficiency in the iron-loaded Cebus apella monkey
Assay type: in vivo
Experimental setup: 300 μmol/kg po
Text: One screen for efficacy is the normal (not iron-loaded) Sprague-Dawley rat with a cannulated bile duct. […] To date, the behavior of iron chelators in this primate model has been-quantitatively predictive of both the magnitude and routes of iron clearance after human administration. The primary measure of activity is the efficiency of the compound, as assessed in both rodent and primate models and compared with sc DFO. […]
For each record, write down the corresponding % Efficiency of Iron Clearance.
Answers are plain numbers, in %.

// worked examples, % Efficiency of Iron Clearance included
{"Compound": "CN(O)C(=O)[C@H]1CSC(c2ncccc2O)=N1", "Numeric readout": 13.2}
{"Compound": "O=C(O)C1CSC(c2ccc(O)cc2O)=N1 [5(S)]", "Numeric readout": 5.3}
{"Compound": "C[C@]1(C(=O)O)CSC(c2ccccc2O)=N1 [9(S)]", "Numeric readout": 13.1}

Please examine the following record next.
Challenge: Fill in reported % Efficiency of Iron Clearance for this entry: O=C(O)[C@H]1CSC(c2ncccc2O)=N1 [2(S), (S)-desmethyldesferrithiocin]
Response given: 8.0

###

Test protocol: Iron clearance efficiency in the normal (not iron-loaded) bile duct-cannulated Sprague-Dawley rat
Assay type: in vivo
Experimental setup: sc
Reported property: % Efficiency of Iron Clearance

// worked examples, % Efficiency of Iron Clearance included
{"Compound": "COc1cccc(C2=N[C@@H](C(=O)O)CS2)c1O [6(S)]", "Result": "0.5 ± 0.9 (sc) %"}
{"Compound": "Oc1cccnc1C1=N[C@@H](N(O)CCOCCOCCN(O)[C@H]2CSC(c3ncccc3O)=N2)CS1", "Result": "20.6 ± 1.3 (sc) %"}
{"Compound": "CN(O)C(=O)[C@H]1CSC(c2ncccc2O)=N1", "Result": "5.3 ± 0.7 (sc) %"}

Quick one: give me % Efficiency of Iron Clearance for each item below, same order please.
1. O=C(C1CSC(c2ncccc2O)=N1)N(O)Cc1ccccc1 (centres unmarked)
2. O=C(O)[C@H]1CSC(c2ncccc2O)=N1 [2(S), (S)-desmethyldesferrithiocin]

Response given:
1.4 ± 0.8 (sc) %
1.8 ± 0.7 (sc) %

###

Test protocol: Iron clearance efficiency in the normal (not iron-loaded) bile duct-cannulated Sprague-Dawley rat
Type: in vivo
Experimental setup: po
For each record, write down the corresponding % Efficiency of Iron Clearance.

// worked examples, % Efficiency of Iron Clearance included
{"Molecule": "O=C(O)C1CSC(c2ccc(O)cc2O)=N1 [5(S)]", "% Efficiency of Iron Clearance": "2.4 ± 0.9 (po) %"}
{"Molecule": "Oc1cccnc1C1=N[C@@H](N(O)CCOCCOCCN(O)[C@H]2CSC(c3ncccc3O)=N2)CS1 [Compound 25]", "% Efficiency of Iron Clearance": "4.6 ± 2.1 (po) %"}
{"Molecule": "CN(O)C(=O)[C@H]1CSC(c2ncccc2O)=N1 [Compound 22]", "% Efficiency of Iron Clearance": "3.1 ± 0.4 (po) %"}
{"Molecule": "COc1cccc(C2=N[C@@H](C(=O)O)CS2)c1O [6(S)]", "% Efficiency of Iron Clearance": "0.9 ± 0.3 (po) %"}
{"Molecule": "C[C@]1(C(=O)O)CSC(c2ccccc2O)=N1 [9(S)]", "% Efficiency of Iron Clearance": "2.7 ± 0.5 (po) %"}
{"Molecule": "O=C(O)[C@H]1CSC(c2ncccc2O)=N1 [2(S), (S)-desmethyldesferrithiocin]", "% Efficiency of Iron Clearance": "2.4 ± 0.56 (po) %"}

Challenge: Fill in reported % Efficiency of Iron Clearance for this entry: O=C(C1CSC(c2ncccc2O)=N1)N(O)Cc1ccccc1 (stereo not shown) [Compound 24]
Response given: 1 ± 0.1 (po) %
